- assay_explanation: yeast display, Sf9 membrane polyspecificity reagent, FACS + sequencing; frameworks hold sequencing errors
property_name: polyreactivity (PSR sort gate)

[[record]]
sequence_content = "QVQLVESGGVLVQAGCSLRLSCAASGSTFYYNAMGWYRQAPRKERELVARISRSGGSTYADSVKGRFTISRDNAKNTVYLQMNSLKPEDTAVYYCYADAYGTPEFTSYAVRYDYWGQGTQVTVSS"
endpoint_value = "low polyreactivity"

[[record]]
sequence_content = "QVQLVESGGGLVQAGGSLRISCAASGSTFYVNAMGWYRQAPGKERELVAAIDGGDTYYADSVKGRFTISRDNAKNTVYLQMNSLKPEDTAVYYCAAESLPEISVGLGYWGQGTQVTVSS"
endpoint_value = "low polyreactivity"

[[record]]
sequence_content = "QVQLGESGGGLVQAGGSLRLSCAASGSIFTFNTMGRYRQAPGKERELVATISSGGRTSYADSVKGRFTISRDNAKNTVYLQMNSLKPADTAVYYCNKGYYGYTYVESNYWGLGTQVTVSS"
endpoint_value = "low polyreactivity"

